These entries and their values trace back to patent EP3906926A1.

- Measured on: PHDs
- Assay details: ODD-luciferase reporter assay (Dual-Glo) for PHDs inhibition
- Cond: C2C12 myoblasts transfected with ODD-luciferase-pcDNA3; 24 hours at 50, 100, 250, 500, 1000 µM, normoxic conditions; linear regression
Measured parameter: EC50

O=C(O)CCC(=O)NNC(=O)c1cc2c(cn1)[nH]c1ccccc12 [PLG6]; undetectable
COC(=O)CCC(=O)NNC(=O)c1cc(N(C)C)ccn1 [PLG23]; undetectable
COC(=O)CCC(=O)NNC(=O)c1cc2ccccc2cn1 [PLG11]; 250 µM
O=C(O)CCC(=O)NNC(=O)c1cc2ccccc2cn1 [PLG2]; 250 µM
COC(=O)CCC(=O)NNC(=O)c1cc2c(cn1)[nH]c1ccccc12 [PLG8]; 250 µM

Let's switch to this molecule now.
[ask] Dear colleague, I am looking for the recorded EC50 of the following molecule: CN(C)c1ccnc(C(=O)NNC(=O)CCC(=O)O)c1 [PLG19]
[reply] undetectable
